// data source = patent US20060035901A1

Measured IC50 on DHFR (Homo sapiens, UniProt P00374) follows.
Sequence (P00374 whole entry, species assumed): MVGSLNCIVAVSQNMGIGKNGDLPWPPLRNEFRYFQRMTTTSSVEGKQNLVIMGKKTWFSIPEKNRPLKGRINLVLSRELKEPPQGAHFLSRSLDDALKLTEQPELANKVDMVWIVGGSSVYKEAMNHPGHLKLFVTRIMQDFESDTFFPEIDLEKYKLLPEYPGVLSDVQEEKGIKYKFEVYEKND
value type: IC50 (nM)

molecule	assayed system	IC50 [nM]
Cc1cc(C(=O)NC(CCC(=O)O)C(=O)O)ccc1N(Cc1cnc2nc(N)nc(N)c2n1)CC(C)(C)C (centres unmarked) [Formula IV]	DHFR (Homo sapiens, UniProt P00374)	17
C#CCN(Cc1cnc2nc(N)nc(N)c2n1)c1ccc(C(=O)NC(CCC(=O)O)C(=O)O)cc1OC (centres unmarked) [Formula VIII]	DHFR (Homo sapiens, UniProt P00374)	15

###

assayed system: Her2 (Homo sapiens, UniProt P04626)
Sequence (P04626 23-1255, species assumed): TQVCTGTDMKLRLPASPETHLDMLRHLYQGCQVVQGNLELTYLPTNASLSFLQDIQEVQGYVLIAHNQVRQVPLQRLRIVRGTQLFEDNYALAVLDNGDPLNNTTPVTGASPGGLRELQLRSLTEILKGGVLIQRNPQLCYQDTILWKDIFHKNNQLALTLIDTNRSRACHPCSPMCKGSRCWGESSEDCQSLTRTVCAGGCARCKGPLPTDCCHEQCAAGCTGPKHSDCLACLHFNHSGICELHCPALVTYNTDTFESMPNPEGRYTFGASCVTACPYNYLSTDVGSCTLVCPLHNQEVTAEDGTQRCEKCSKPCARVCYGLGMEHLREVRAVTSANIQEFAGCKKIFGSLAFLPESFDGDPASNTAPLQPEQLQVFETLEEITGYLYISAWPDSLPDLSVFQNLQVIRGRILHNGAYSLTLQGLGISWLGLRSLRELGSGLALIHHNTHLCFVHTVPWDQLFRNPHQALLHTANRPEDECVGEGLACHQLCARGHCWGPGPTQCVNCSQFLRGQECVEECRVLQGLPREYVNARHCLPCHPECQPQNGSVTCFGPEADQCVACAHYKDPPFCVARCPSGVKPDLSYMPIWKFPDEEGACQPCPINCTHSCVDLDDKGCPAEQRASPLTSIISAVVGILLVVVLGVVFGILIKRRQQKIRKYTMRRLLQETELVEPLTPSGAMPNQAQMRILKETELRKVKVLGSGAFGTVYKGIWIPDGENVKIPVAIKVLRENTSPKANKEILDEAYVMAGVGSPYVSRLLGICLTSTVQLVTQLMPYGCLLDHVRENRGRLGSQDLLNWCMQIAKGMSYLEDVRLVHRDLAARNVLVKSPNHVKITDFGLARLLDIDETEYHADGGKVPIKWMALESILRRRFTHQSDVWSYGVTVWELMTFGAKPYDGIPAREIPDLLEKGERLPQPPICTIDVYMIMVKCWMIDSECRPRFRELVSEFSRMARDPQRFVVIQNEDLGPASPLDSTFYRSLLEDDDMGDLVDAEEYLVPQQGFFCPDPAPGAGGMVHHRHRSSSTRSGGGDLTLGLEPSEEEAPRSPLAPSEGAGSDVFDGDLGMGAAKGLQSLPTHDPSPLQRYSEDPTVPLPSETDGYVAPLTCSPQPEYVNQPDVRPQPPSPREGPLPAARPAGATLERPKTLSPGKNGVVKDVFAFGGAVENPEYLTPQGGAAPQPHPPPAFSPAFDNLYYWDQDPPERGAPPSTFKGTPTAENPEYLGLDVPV
value type: IC50 (µM)
Write the number in µM without appending the unit.

Per the reported Her2 (Homo sapiens, UniProt P04626) data, Cc1cc(C(=O)NC(CCC(=O)O)C(=O)O)ccc1N(Cc1ccoc1)Cc1cnc2nc(N)nc(N)c2n1 (stereo not shown) [Formula VII] has IC50 of 5

###

assayed system: propionyl-CoA carboxylase subunit beta (PCCB) (Sus scrofa)
Construct: a porcine liver proteome was run over an ATP-Sepharose™ column
Sequence (P79384 29-539): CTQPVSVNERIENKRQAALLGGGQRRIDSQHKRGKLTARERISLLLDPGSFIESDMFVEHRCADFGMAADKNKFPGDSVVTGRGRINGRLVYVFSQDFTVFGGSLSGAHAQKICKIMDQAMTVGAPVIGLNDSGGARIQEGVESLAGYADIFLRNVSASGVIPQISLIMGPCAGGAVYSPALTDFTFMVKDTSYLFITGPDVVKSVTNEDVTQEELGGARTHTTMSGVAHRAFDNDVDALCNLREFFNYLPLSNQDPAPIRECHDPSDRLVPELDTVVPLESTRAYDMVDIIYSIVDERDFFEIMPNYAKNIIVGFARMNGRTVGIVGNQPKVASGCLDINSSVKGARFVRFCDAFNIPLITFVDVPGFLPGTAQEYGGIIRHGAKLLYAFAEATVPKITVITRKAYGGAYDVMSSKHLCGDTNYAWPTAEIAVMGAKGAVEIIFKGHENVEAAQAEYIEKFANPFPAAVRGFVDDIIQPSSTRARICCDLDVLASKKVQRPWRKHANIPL
Sequence (P0DTA4 53-730 partner): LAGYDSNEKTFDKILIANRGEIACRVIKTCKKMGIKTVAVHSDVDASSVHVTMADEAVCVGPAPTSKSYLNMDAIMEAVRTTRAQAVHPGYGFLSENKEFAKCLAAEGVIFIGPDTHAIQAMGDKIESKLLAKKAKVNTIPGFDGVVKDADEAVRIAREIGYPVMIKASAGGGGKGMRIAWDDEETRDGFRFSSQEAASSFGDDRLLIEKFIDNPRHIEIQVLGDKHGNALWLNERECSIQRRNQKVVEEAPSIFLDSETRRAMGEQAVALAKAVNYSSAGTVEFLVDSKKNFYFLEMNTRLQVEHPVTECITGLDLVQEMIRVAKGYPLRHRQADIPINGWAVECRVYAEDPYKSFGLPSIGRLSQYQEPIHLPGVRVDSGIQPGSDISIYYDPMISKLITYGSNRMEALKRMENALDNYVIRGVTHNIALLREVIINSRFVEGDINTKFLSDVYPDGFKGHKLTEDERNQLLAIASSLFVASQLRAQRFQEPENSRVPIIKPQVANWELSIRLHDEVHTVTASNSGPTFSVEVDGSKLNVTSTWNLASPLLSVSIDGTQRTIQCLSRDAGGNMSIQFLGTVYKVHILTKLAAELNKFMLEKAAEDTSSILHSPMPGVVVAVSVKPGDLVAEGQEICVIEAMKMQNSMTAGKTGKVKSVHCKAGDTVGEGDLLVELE
assay notes: Elution of PCCB from ATP-Sepharose column loaded with porcine liver proteome, IC50 estimate
recorded conditions: estimated from percent of protein eluted from ATP-Sepharose column, read-out: Approximate IC50 for PCCB
pIC50: −log10 of the molar value.
value type: pIC50

compound	value type	readout value
Cc1cc(C(=O)NC(CCC(=O)O)C(=O)O)ccc1N(Cc1ccoc1)Cc1cnc2nc(N)nc(N)c2n1 (stereo not drawn)	pIC50	5.52

[a] C#CCN(Cc1cnc2nc(N)nc(N)c2n1)c1ccc(C(=O)NC(CCC(=O)O)C(=O)O)cc1C (stereo not drawn)
[b] Cc1cc(C(=O)NC(CCC(=O)O)C(=O)O)ccc1N(Cc1cnc2nc(N)nc(N)c2n1)CC(C)(C)C (stereo not drawn)
Q: Could you point out whether the larger pIC50 belongs to a or to b ? State your choice using its label.
A: a
(a: 5.46, b: 5.00)
